assayed system: c-KIT D816H kinase (Seq ID no. 3) (Homo sapiens, UniProt P10721, D816H)
Construct: GST (N); TEV cleavage site (N)
Sequence (P10721 544-976 D816H): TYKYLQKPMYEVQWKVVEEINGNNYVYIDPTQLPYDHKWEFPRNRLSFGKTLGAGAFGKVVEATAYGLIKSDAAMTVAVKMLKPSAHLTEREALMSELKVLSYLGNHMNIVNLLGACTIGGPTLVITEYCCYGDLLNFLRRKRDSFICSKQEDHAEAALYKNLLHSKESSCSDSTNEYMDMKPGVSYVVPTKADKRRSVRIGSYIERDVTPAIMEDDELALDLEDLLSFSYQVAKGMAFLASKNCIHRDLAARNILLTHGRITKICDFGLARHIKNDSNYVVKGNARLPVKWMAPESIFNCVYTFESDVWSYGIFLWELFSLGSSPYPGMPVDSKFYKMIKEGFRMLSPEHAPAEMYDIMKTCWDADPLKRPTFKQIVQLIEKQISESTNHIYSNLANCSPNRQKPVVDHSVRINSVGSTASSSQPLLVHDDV
protocol notes: c-KIT D816H Kinase Assay
condition details: enzymatic assay, ATP 200 μM

molecular string: CCn1c(=O)c(-c2cc(NC(=O)Nc3cc(F)cc(CN4CCN(C)CC4)c3)c(F)cc2Cl)cc2cnc(NC)cc21
assayed system: c-KIT D816H kinase (Seq ID no. 3) (Homo sapiens, UniProt P10721, D816H)
IC50: 10 to 100 nM

molecular string: CCn1c(=O)c(-c2cc(NC(=O)Nc3cccc(CN4CCN(C)CC4)c3)c(F)cc2Cl)cc2cnc(NC)cc21
assayed system: c-KIT D816H kinase (Seq ID no. 3) (Homo sapiens, UniProt P10721, D816H)
IC50: 10 to 100 nM

molecular string: CCn1c(=O)c(-c2cc(NC(=O)Nc3ccccc3)c(F)cc2Cl)cc2cnc(NCCCN3CCOCC3)cc21
assayed system: c-KIT D816H kinase (Seq ID no. 3) (Homo sapiens, UniProt P10721, D816H)
IC50: 10 to 100 nM

molecular string: CCn1c(=O)c(-c2cc(NC(=O)Nc3ccccc3)c(F)cc2Cl)cc2cnc(N)cc21
assayed system: c-KIT D816H kinase (Seq ID no. 3) (Homo sapiens, UniProt P10721, D816H)
IC50: < 10 nM

molecular string: CCn1c(=O)c(-c2cc(NC(=O)Nc3ccccc3)c(F)cc2C)cc2cnc(Nc3cnn(C)c3)cc21
assayed system: c-KIT D816H kinase (Seq ID no. 3) (Homo sapiens, UniProt P10721, D816H)
IC50: < 10 nM

molecular string: CC(=O)Nc1cc2c(cn1)cc(-c1cc(NC(=O)Nc3cccc(F)c3)c(F)cc1Cl)c(=O)n2C(C)C
assayed system: c-KIT D816H kinase (Seq ID no. 3) (Homo sapiens, UniProt P10721, D816H)
IC50: 10 to 100 nM

molecular string: CCn1c(=O)c(-c2cc(NC(=O)Nc3ccccc3)c(F)cc2F)cc2cnc(NC(=O)CC#N)cc21
assayed system: c-KIT D816H kinase (Seq ID no. 3) (Homo sapiens, UniProt P10721, D816H)
IC50: 100 to 1000 nM

---

This section presents compounds with their documented pIC50 values.
assayed system: c-KIT T670I kinase (Seq ID no. 6) (Homo sapiens, UniProt P10721, T670I)
Construct: GST (N); TEV cleavage site (N)
Sequence (P10721 544-976 T670I): as the sequence (P10721 544-976 D816H) above, with T127I, H273D counted along it
protocol notes: c-KIT T670I Kinase Assay
condition details: enzymatic assay, ATP 200 uM
pIC50: −log10 of the molar value.

compound: CCn1c(=O)c(-c2cc(NC(=O)Nc3ccccc3)c(F)cc2Cl)cc2cnc(NC(=O)[C@@H]3CCCN3)cc21 [Example 85]
pIC50: 6.00 to 7.00
//
compound: CCn1c(=O)c(-c2cc(NC(=O)Nc3cc(F)cc(CN4CCN(C)CC4)c3)c(F)cc2Cl)cc2cnc(NC)cc21 [Example 88]
pIC50: 7.00 to 8.00
//
compound: CCn1c(=O)c(-c2cc(NC(=O)Nc3ccccc3)c(F)cc2Cl)cc2cnc(NC3CCOCC3)cc21 [Example 42]
pIC50: 6.00 to 7.00
//
compound: CCn1c(=O)c(-c2cc(NC(=O)Nc3ccccc3)c(F)cc2Cl)cc2cnc(NCCS(C)(=O)=O)cc21 [Example 48]
pIC50: < 6.00

---

This section presents compounds with their documented IC50 values.
assayed system: Phospho-KIT (Tyr719) in GIST48 cells (Homo sapiens, UniProt P10721)
Sequence (P10721 whole entry V560D/D820A, form open): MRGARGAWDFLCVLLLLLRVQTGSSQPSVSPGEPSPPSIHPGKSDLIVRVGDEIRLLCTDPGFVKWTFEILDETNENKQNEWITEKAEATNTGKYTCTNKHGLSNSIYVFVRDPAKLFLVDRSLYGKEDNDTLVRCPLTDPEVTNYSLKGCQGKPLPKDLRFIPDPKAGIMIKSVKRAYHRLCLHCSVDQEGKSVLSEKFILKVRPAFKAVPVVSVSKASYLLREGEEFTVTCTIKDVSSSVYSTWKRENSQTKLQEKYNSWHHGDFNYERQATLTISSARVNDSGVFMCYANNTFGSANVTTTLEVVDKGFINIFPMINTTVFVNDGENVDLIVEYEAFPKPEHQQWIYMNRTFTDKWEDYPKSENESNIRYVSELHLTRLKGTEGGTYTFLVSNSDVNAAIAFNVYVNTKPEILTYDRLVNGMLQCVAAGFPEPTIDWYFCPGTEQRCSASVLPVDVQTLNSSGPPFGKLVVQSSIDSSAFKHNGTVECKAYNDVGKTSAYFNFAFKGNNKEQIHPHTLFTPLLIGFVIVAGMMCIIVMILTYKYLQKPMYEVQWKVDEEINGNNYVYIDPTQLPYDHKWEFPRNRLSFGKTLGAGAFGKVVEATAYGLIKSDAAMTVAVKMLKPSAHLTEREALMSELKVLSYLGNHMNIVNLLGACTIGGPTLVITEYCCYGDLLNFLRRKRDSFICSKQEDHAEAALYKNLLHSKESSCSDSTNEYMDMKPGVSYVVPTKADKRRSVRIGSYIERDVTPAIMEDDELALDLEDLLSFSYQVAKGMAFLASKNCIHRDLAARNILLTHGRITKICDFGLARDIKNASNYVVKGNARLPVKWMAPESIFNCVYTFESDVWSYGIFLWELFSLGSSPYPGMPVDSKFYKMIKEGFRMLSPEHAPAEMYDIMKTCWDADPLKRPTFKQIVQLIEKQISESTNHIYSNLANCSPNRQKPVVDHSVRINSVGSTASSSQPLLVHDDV
protocol notes: GIST48 KIT Western Blot
condition details: 4 hours, read-out: pKIT suppression by western blot analysi GIST48

compound: CCn1c(=O)c(-c2cc(NC(=O)Nc3cc(F)ccc3F)c(F)cc2Cl)cc2cnc(NC)cc21 [Example 68]
IC50: 0.1 to 1 µM

compound: CCn1c(=O)c(-c2cc(NC(=O)Nc3ccccc3)c(F)cc2Cl)cc2cnc(NC(=O)N(C)C)cc21 [Example 70]
IC50: 0.01 to 0.1 µM

compound: CCn1c(=O)c(-c2cc(NC(=O)Nc3cccc(F)c3)c(F)cc2C)cc2cnc(NC)cc21 [Example 44]
IC50: 0.01 to 0.1 µM

compound: CNc1cc2c(cn1)cc(-c1cc(NC(=O)Nc3csc4ccccc34)c(F)cc1F)c(=O)n2C [Example 14]
IC50: < 0.01 µM

compound: CCn1c(=O)c(-c2cc(NC(=O)Nc3ccccc3)c(F)cc2C)cc2cnc(NC(=O)N(C)C)cc21 [Example 101]
IC50: > 1 µM

compound: CCn1c(=O)c(-c2cc(NC(=O)Nc3ccccc3)c(F)cc2Cl)cc2cnc(NC(C)=O)cc21 [Example 54]
IC50: 0.01 to 0.1 µM

compound: CCn1c(=O)c(-c2cc(NC(=O)Nc3cccc(F)c3)c(F)cc2Br)cc2cnc(NC)cc21 [Example 50]
IC50: 0.1 to 1 µM

compound: CCn1c(=O)c(-c2cc(NC(=O)Nc3ccc(F)c(CN4CCN(C)CC4)c3)c(F)cc2Cl)cc2cnc(NC)cc21 [Example 87]
IC50: 0.01 to 0.1 µM

compound: CCn1c(=O)c(-c2cc(NC(=O)Nc3cccc(CN4CCN(C)CC4)c3)c(F)cc2Cl)cc2cnc(NC)cc21 [Example 79]
IC50: 0.01 to 0.1 µM

---

assayed system: c-KIT kinase (Seq ID no. 1) (Homo sapiens)
Construct: GST (N); TEV cleavage site (N)
Sequence (P10721 with tags, fused parts or gaps): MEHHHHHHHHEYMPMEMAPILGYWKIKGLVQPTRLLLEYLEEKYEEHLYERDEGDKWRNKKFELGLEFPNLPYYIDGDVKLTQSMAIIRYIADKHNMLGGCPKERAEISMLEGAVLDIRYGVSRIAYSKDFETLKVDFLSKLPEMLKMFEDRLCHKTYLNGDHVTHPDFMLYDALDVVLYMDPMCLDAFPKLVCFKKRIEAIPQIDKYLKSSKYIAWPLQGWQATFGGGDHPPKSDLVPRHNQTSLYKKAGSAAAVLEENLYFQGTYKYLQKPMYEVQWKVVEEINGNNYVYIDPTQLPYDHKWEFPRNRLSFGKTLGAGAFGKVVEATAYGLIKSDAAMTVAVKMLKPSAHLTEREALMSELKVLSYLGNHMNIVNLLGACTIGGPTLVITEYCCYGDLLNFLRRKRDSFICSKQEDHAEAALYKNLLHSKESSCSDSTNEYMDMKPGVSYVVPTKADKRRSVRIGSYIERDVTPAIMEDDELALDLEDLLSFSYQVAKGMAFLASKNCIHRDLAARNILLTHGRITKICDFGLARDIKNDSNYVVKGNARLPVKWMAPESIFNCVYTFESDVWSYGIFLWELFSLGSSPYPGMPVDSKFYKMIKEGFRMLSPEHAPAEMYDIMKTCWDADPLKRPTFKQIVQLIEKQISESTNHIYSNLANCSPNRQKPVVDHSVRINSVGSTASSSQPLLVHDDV
protocol notes: c-KIT Kinase Assay (pyruvate kinase/lactate dehydrogenase coupled)
condition details: enzymatic assay, ATP 200 μM; read-out: KIT (wt)
pIC50: −log10 of the molar value.

molecular string: CCn1c(=O)c(-c2cc(NC(=O)Nc3cc(F)cc(CN4CCN(C)CC4)c3)c(F)cc2Cl)cc2cnc(NC)cc21
pIC50: > 8.00

molecular string: CCn1c(=O)c(-c2cc(NC(=O)Nc3ccccc3)c(F)cc2Cl)cc2cnc(N)cc21
pIC50: > 8.00

molecular string: CCn1c(=O)c(-c2cc(NC(=O)Nc3ccccc3)c(F)cc2Br)cc2cnc(NCCS(C)(=O)=O)cc21
pIC50: > 8.00
